The values you see were collected from the kinase profiling compilation of Christmann-Franck et al. (2016).

TARGET_UNDER_TEST: MARK4 (human) (UniProt Q96L34)
Sequence (Q96L34 whole entry, looked up): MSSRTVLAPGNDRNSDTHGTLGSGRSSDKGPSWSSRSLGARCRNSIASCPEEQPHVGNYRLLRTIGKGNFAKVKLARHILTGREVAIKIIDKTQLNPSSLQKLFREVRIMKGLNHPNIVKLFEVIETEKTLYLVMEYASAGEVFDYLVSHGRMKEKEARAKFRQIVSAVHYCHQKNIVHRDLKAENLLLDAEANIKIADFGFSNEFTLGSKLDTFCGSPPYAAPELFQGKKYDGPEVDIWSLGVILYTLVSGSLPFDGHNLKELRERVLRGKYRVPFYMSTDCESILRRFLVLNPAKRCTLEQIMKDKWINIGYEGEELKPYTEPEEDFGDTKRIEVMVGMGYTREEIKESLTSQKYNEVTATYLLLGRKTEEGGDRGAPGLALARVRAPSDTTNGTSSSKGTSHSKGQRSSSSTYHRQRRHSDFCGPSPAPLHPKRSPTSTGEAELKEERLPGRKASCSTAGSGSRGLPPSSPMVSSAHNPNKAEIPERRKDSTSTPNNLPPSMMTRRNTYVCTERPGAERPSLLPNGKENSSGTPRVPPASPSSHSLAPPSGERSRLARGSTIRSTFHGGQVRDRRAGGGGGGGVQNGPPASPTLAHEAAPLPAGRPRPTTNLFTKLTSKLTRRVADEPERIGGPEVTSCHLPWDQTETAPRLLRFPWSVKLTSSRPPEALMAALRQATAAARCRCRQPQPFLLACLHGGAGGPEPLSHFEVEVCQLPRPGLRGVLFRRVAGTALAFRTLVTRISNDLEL
ASSAY_PROCEDURE: KINOMEscan competition binding
PARTICULARS: compound 10.0 µM

[
  {
    "STRUCTURE_AS_SMILES": "C=CC(=O)Nc1ccc(CN(C(=O)Nc2c(Cl)c(OC)cc(OC)c2Cl)c2cc(Nc3ccc(N4CCN(C)CC4)cc3)ncn2)cc1",
    "UNIT_DESCRIPTOR": "%",
    "kinase still bound, per cent of control": 100
  },
  {
    "STRUCTURE_AS_SMILES": "CCN1CCN(C(=O)Cc2ccc(Nc3ncc(F)c(Nc4ccc(C(=O)Nc5ccccc5Cl)cc4)n3)cc2)CC1",
    "UNIT_DESCRIPTOR": "%",
    "kinase still bound, per cent of control": 17
  },
  {
    "STRUCTURE_AS_SMILES": "COc1cc(C(=O)N2CCC(N3CCN(C)CC3)CC2)ccc1Nc1ncc2c(n1)N(C)c1ccccc1C(=O)N2C",
    "UNIT_DESCRIPTOR": "%",
    "kinase still bound, per cent of control": 78
  },
  {
    "STRUCTURE_AS_SMILES": "O=c1cc(N2CCOCC2)oc2c(-c3cccc4c3sc3ccccc34)cccc12",
    "UNIT_DESCRIPTOR": "%",
    "kinase still bound, per cent of control": 100
  }
]

----------
TARGET_UNDER_TEST: MAP3K9 (human) (UniProt P80192)
Sequence (P80192 whole entry, looked up): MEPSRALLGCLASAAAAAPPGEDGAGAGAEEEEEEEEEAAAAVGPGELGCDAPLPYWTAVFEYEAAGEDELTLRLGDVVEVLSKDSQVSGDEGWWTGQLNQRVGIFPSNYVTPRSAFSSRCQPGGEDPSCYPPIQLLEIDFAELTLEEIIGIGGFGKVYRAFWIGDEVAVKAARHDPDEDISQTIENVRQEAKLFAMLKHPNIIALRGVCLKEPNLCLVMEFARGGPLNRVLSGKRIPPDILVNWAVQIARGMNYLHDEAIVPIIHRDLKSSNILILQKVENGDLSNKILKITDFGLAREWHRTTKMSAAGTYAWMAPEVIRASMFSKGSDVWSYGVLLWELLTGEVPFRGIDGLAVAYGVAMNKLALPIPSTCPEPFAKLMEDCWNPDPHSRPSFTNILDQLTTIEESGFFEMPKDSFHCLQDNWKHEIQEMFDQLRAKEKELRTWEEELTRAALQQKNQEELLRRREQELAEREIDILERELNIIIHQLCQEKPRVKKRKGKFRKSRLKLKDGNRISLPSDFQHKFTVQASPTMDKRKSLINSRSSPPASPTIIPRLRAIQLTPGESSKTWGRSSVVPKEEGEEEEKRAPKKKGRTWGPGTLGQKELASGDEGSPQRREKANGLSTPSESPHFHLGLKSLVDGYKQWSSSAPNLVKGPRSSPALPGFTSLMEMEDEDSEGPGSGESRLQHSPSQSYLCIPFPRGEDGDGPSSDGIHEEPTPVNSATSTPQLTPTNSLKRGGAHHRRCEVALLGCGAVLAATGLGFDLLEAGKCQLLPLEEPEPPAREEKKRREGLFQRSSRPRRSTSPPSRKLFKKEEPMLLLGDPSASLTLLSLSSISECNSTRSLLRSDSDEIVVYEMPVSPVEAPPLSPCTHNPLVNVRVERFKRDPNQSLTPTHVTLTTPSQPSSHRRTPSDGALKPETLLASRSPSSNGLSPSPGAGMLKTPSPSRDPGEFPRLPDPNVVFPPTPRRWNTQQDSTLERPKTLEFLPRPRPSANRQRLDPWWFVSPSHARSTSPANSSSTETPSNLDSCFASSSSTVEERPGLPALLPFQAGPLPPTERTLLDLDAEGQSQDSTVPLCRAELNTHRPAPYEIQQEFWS
ASSAY_PROCEDURE: KINOMEscan competition binding
PARTICULARS: compound 10.0 µM

[
  {
    "STRUCTURE_AS_SMILES": "C=CC(=O)Nc1ccc(CN(C(=O)Nc2c(Cl)c(OC)cc(OC)c2Cl)c2cc(Nc3ccc(N4CCN(C)CC4)cc3)ncn2)cc1",
    "kinase still bound, per cent of control [%]": 12
  },
  {
    "STRUCTURE_AS_SMILES": "CN(C)C/C=C/C(=O)Nc1ccc(C(=O)Nc2cccc(Nc3nccc(-c4cccnc4)n3)c2)cc1",
    "kinase still bound, per cent of control [%]": 78
  },
  {
    "STRUCTURE_AS_SMILES": "COc1cc(C(=O)N2CCC(N3CCN(C)CC3)CC2)ccc1Nc1ncc2c(n1)N(C)c1ccccc1C(=O)N2C",
    "kinase still bound, per cent of control [%]": 93
  },
  {
    "STRUCTURE_AS_SMILES": "COc1cc2ncn(-c3cc(OCc4ccccc4C(F)(F)F)c(C(N)=O)s3)c2cc1OC",
    "kinase still bound, per cent of control [%]": 71
  },
  {
    "STRUCTURE_AS_SMILES": "N#CCNC(=O)c1ccc(-c2ccnc(Nc3ccc(N4CCOCC4)cc3)n2)cc1",
    "kinase still bound, per cent of control [%]": 45
  },
  {
    "STRUCTURE_AS_SMILES": "CCN1CCN(C(=O)Cc2ccc(Nc3ncc(F)c(Nc4ccc(C(=O)Nc5ccccc5Cl)cc4)n3)cc2)CC1",
    "kinase still bound, per cent of control [%]": 17
  }
]

----------
TARGET_UNDER_TEST: MAPK1 (human)
ASSAY_PROCEDURE: KINOMEscan competition binding
PARTICULARS: compound 10.0 µM
Listing of recorded kinase still bound, per cent of control by entry.

[
  {
    "STRUCTURE_AS_SMILES": "C=CC(=O)Nc1cc(-n2c(=O)ccc3cnc4ccc(-c5cn[nH]c5)cc4c32)ccc1C",
    "kinase still bound, per cent of control, %": 100
  },
  {
    "STRUCTURE_AS_SMILES": "COc1cc(C(=O)N2CCC(N3CCN(C)CC3)CC2)ccc1Nc1ncc2c(n1)N(C)c1ccccc1C(=O)N2C",
    "kinase still bound, per cent of control, %": 85
  },
  {
    "STRUCTURE_AS_SMILES": "Cc1n[nH]c2ccc(-c3cncc(OC[C@@H](N)Cc4c[nH]c5ccccc45)c3)cc12",
    "kinase still bound, per cent of control, %": 100
  },
  {
    "STRUCTURE_AS_SMILES": "C=CC(=O)Nc1ccc(CN(C(=O)Nc2c(Cl)c(OC)cc(OC)c2Cl)c2cc(Nc3ccc(N4CCN(C)CC4)cc3)ncn2)cc1",
    "kinase still bound, per cent of control, %": 100
  },
  {
    "STRUCTURE_AS_SMILES": "O=C(Nc1cccc(Nc2ncc(Br)c(NCCc3cnc[nH]3)n2)c1)N1CCCC1",
    "kinase still bound, per cent of control, %": 77
  },
  {
    "STRUCTURE_AS_SMILES": "CS(=O)(=O)N1CCN(Cc2cc3nc(-c4cccc5[nH]ncc45)nc(N4CCOCC4)c3s2)CC1",
    "kinase still bound, per cent of control, %": 100
  },
  {
    "STRUCTURE_AS_SMILES": "COc1cc(N2CCN(C)CC2)ccc1Nc1ncc2c(n1)N(C)c1ccccc1C(=O)N2C",
    "kinase still bound, per cent of control, %": 100
  },
  {
    "STRUCTURE_AS_SMILES": "CCN(CC)CCCCNc1ncc2cc(-c3cc(OC)cc(OC)c3)c(NC(=O)NC(C)(C)C)nc2n1",
    "kinase still bound, per cent of control, %": 100
  },
  {
    "STRUCTURE_AS_SMILES": "CNC(=O)c1ccc(Nc2cc(Nc3ccccc3S(=O)(=O)C(C)C)c3cc[nH]c3n2)nc1",
    "kinase still bound, per cent of control, %": 22
  },
  {
    "STRUCTURE_AS_SMILES": "CCN(CC)CCCCNc1ncc2c(n1)N(C)C(=O)N(c1c(Cl)c(OC)cc(OC)c1Cl)C2",
    "kinase still bound, per cent of control, %": 100
  },
  {
    "STRUCTURE_AS_SMILES": "CNC(=O)c1cc(Oc2ccc(NC(=O)Nc3ccc(Cl)c(C(F)(F)F)c3)cc2)ccn1",
    "kinase still bound, per cent of control, %": 100
  },
  {
    "STRUCTURE_AS_SMILES": "COCC(=O)NC/C=C/c1ccc2ncnc(Nc3ccc(Oc4ccc(C)nc4)c(C)c3)c2c1",
    "kinase still bound, per cent of control, %": 100
  },
  {
    "STRUCTURE_AS_SMILES": "NC(=O)Nc1cc(-c2cccc(F)c2)sc1C(=O)N[C@@H]1CCCNC1",
    "kinase still bound, per cent of control, %": 65
  },
  {
    "STRUCTURE_AS_SMILES": "O=C1NC(=O)/C(=C/c2ccc3nccc(-c4ccncc4)c3c2)S1",
    "kinase still bound, per cent of control, %": 100
  },
  {
    "STRUCTURE_AS_SMILES": "O=c1cc(N2CCOCC2)oc2c(-c3cccc4c3sc3ccccc34)cccc12",
    "kinase still bound, per cent of control, %": 95
  },
  {
    "STRUCTURE_AS_SMILES": "COc1ccc(N(C(=O)Oc2c(C)cccc2C)c2ccnc(Nc3ccc(N4CCN(C)CC4)cc3)n2)c(OC)c1",
    "kinase still bound, per cent of control, %": 87
  },
  {
    "STRUCTURE_AS_SMILES": "CCN1CCN(C(=O)Cc2ccc(Nc3ncc(F)c(Nc4ccc(C(=O)Nc5ccccc5Cl)cc4)n3)cc2)CC1",
    "kinase still bound, per cent of control, %": 100
  }
]
